experiment: Ratio of drug level in lymph node popliteal to plasma in Beagle dog at 5 mg/kg administered intramuscularly after 1 month; assay type: ADME, organism-based, Canis lupus familiaris; parameters: dose 5 mg/kg, route intramuscular; details: im
measurement-kind: Kp at 730.5 h
Please reply with the value in numeric form only.

(Q) Dear colleague, please send me the reported Kp at 730.5 h for Cc1cc(/C=C/C#N)cc(C)c1Nc1ccnc(Nc2ccc(C#N)cc2)n1 when you can.
(A) 574

----------
assay: Drug level in Beagle dog spleen at 5 mg/kg administered intramuscularly after 3 months; assay type: ADME, organism-based, Canis lupus familiaris; set-up: dose 5 mg/kg, route intramuscular; details: im, read-out: Drug uptake
measurement-kind: concentration at 2191.5 h

(Q) Dear colleague, please send me the reported concentration at 2191.5 h for Cc1cc(/C=C/C#N)cc(C)c1Nc1ccnc(Nc2ccc(C#N)cc2)n1 when you can.
(A) < 5 ng/g

----------
experiment: Drug level in female Beagle dog spleen at 200 mg/kg, sc after 3 months; type: ADME, organism-based, Canis lupus familiaris; set-up: dose 200 mg/kg, route subcutaneous; conditions: read-out: Drug uptake
measurement-kind: concentration at 2191.5 h
Value and unit, in that order.

(Q) Dear colleague, please send me the reported concentration at 2191.5 h for Cc1cc(/C=C/C#N)cc(C)c1Nc1ccnc(Nc2ccc(C#N)cc2)n1 when you can.
(A) 49.5 ng/g

----------
assay: Ratio of drug level in lymph node axillar to plasma in Beagle dog at 5 mg/kg, sc after 3 months; format: ADME, organism-based, Canis lupus familiaris; design: dose 5 mg/kg, route subcutaneous; details: axillary lymph node/plasma
measurement-kind: Kp at 2191.5 h
Please reply with the value in numeric form only.

(Q) Dear colleague, please send me the reported Kp at 2191.5 h for Cc1cc(/C=C/C#N)cc(C)c1Nc1ccnc(Nc2ccc(C#N)cc2)n1 [RILPIVIRINE] when you can.
(A) 6.8

----------
assay: Drug level in Beagle dog lymph node popliteal at 5 mg/kg, sc after 6 months; assay type: ADME, organism-based, Canis lupus familiaris; design: dose 5 mg/kg, route subcutaneous; conditions: read-out: Drug uptake
measurement-kind: concentration at 4383 h (ng/g)
# value in ng/g; strip the unit string

(Q) Dear colleague, please send me the reported concentration at 4383 h for Cc1cc(/C=C/C#N)cc(C)c1Nc1ccnc(Nc2ccc(C#N)cc2)n1 when you can.
(A) 5.5

----------
test: Plasma concentration in female Beagle dog at 400 mg/kg, sc after 3 months; format: ADME, organism-based, Canis lupus familiaris; design: dose 400 mg/kg, route subcutaneous
measurement-kind: concentration at 2191.5 h (ng/mL)
# value in ng/mL; strip the unit string

(Q) Dear colleague, please send me the reported concentration at 2191.5 h for Cc1cc(/C=C/C#N)cc(C)c1Nc1ccnc(Nc2ccc(C#N)cc2)n1 when you can.
(A) 36

----------
experiment: Ratio of drug level in liver to plasma in Beagle dog at 5 mg/kg, sc after 6 months; format: ADME, organism-based, Canis lupus familiaris; parameters: dose 5 mg/kg, route subcutaneous
measurement-kind: Kp at 4383 h

(Q) Dear colleague, please send me the reported Kp at 4383 h for Cc1cc(/C=C/C#N)cc(C)c1Nc1ccnc(Nc2ccc(C#N)cc2)n1 when you can.
(A) 24

----------
test: Ratio of drug level in spleen to plasma in male Beagle dog at 400 mg/kg administered intramuscularly after 3 months; assay type: ADME, organism-based, Canis lupus familiaris; set-up: dose 400 mg/kg, route intramuscular; conditions: im
measurement-kind: Kp at 2191.5 h

(Q) Dear colleague, please send me the reported Kp at 2191.5 h for Cc1cc(/C=C/C#N)cc(C)c1Nc1ccnc(Nc2ccc(C#N)cc2)n1 [RILPIVIRINE] when you can.
(A) 2.9

----------
assay: Drug level in female Beagle dog thymus at 400 mg/kg administered intramuscularly after 3 months; assay type: ADME, organism-based, Canis lupus familiaris; set-up: dose 400 mg/kg, route intramuscular; conditions: im, read-out: Drug uptake
measurement-kind: concentration at 2191.5 h (ng/g)
# value in ng/g; strip the unit string

(Q) Dear colleague, please send me the reported concentration at 2191.5 h for Cc1cc(/C=C/C#N)cc(C)c1Nc1ccnc(Nc2ccc(C#N)cc2)n1 when you can.
(A) 109

----------
experiment: Drug level in male Beagle dog thymus at 400 mg/kg, sc after 1 month; type: ADME, organism-based, Canis lupus familiaris; design: dose 400 mg/kg, route subcutaneous; details: read-out: Drug uptake
measurement-kind: concentration at 730.5 h (ng/g)
# value in ng/g; strip the unit string

(Q) Dear colleague, please send me the reported concentration at 730.5 h for Cc1cc(/C=C/C#N)cc(C)c1Nc1ccnc(Nc2ccc(C#N)cc2)n1 [RILPIVIRINE] when you can.
(A) 606

----------
experiment: Plasma concentration in Beagle dog at 5 mg/kg, sc after 1 month; type: ADME, organism-based, Canis lupus familiaris; design: dose 5 mg/kg, route subcutaneous
measurement-kind: concentration at 730.5 h (ng/mL)
# value in ng/mL; strip the unit string

(Q) Dear colleague, please send me the reported concentration at 730.5 h for Cc1cc(/C=C/C#N)cc(C)c1Nc1ccnc(Nc2ccc(C#N)cc2)n1 [RILPIVIRINE] when you can.
(A) 16.8

----------
assay: Cmax in female dog at 200 mg, sc after 29 days; details: in vivo
measurement-kind: Cmax (ng/mL)
# value in ng/mL; strip the unit string

(Q) Dear colleague, please send me the reported Cmax for Cc1cc(/C=C/C#N)cc(C)c1Nc1ccnc(Nc2ccc(C#N)cc2)n1 when you can.
(A) 185

----------
assay: Ratio of drug level in spleen to plasma in female Beagle dog at 400 mg/kg, sc after 3 months; assay type: ADME, organism-based, Canis lupus familiaris; parameters: dose 400 mg/kg, route subcutaneous
measurement-kind: Kp at 2191.5 h
Please reply with the value in numeric form only.

(Q) Dear colleague, please send me the reported Kp at 2191.5 h for Cc1cc(/C=C/C#N)cc(C)c1Nc1ccnc(Nc2ccc(C#N)cc2)n1 when you can.
(A) 1.9

----------
assay: Ratio of drug level in thymus to plasma in male Beagle dog at 200 mg/kg administered intramuscularly after 1 month; type: ADME, organism-based, Canis lupus familiaris; set-up: dose 200 mg/kg, route intramuscular; details: im
measurement-kind: Kp at 730.5 h
Please reply with the value in numeric form only.

(Q) Dear colleague, please send me the reported Kp at 730.5 h for Cc1cc(/C=C/C#N)cc(C)c1Nc1ccnc(Nc2ccc(C#N)cc2)n1 when you can.
(A) 3.2

----------
test: Drug level in Beagle dog liver at 5 mg/kg administered intramuscularly after 3 months; format: ADME, organism-based, Canis lupus familiaris; set-up: dose 5 mg/kg, route intramuscular; details: im, read-out: Drug uptake
measurement-kind: concentration at 2191.5 h (ng/g)
# value in ng/g; strip the unit string

(Q) Dear colleague, please send me the reported concentration at 2191.5 h for Cc1cc(/C=C/C#N)cc(C)c1Nc1ccnc(Nc2ccc(C#N)cc2)n1 when you can.
(A) 20.8

----------
test: Cmax in female dog at 200 mg, sc after 85 days; details: in vivo
measurement-kind: Cmax (ng/mL)
# value in ng/mL; strip the unit string

(Q) Dear colleague, please send me the reported Cmax for Cc1cc(/C=C/C#N)cc(C)c1Nc1ccnc(Nc2ccc(C#N)cc2)n1 [RILPIVIRINE] when you can.
(A) 191

----------
assay: Tmax in male dog at 400 mg administered intramuscularly after 85 days; conditions: in vivo, im
measurement-kind: Tmax (h)
# value in h; strip the unit string

(Q) Dear colleague, please send me the reported Tmax for Cc1cc(/C=C/C#N)cc(C)c1Nc1ccnc(Nc2ccc(C#N)cc2)n1 when you can.
(A) 17

----------
assay: Drug level in female Beagle dog spleen at 400 mg/kg administered intramuscularly after 1 month; assay type: ADME, organism-based, Canis lupus familiaris; design: dose 400 mg/kg, route intramuscular; conditions: im, read-out: Drug uptake
measurement-kind: concentration at 730.5 h (ng/g)
# value in ng/g; strip the unit string

(Q) Dear colleague, please send me the reported concentration at 730.5 h for Cc1cc(/C=C/C#N)cc(C)c1Nc1ccnc(Nc2ccc(C#N)cc2)n1 [RILPIVIRINE] when you can.
(A) 311

----------
test: Drug level in Beagle dog lymph node popliteal at 5 mg/kg administered intramuscularly after 3 months; type: ADME, organism-based, Canis lupus familiaris; design: dose 5 mg/kg, route intramuscular; details: im, read-out: Drug uptake
measurement-kind: concentration at 2191.5 h (ng/g)
# value in ng/g; strip the unit string

(Q) Dear colleague, please send me the reported concentration at 2191.5 h for Cc1cc(/C=C/C#N)cc(C)c1Nc1ccnc(Nc2ccc(C#N)cc2)n1 when you can.
(A) 13.7

----------
assay: Tmax in female dog at 200 mg administered intramuscularly after 85 days; conditions: in vivo, im
measurement-kind: Tmax (min)
# value in min; strip the unit string

(Q) Dear colleague, please send me the reported Tmax for Cc1cc(/C=C/C#N)cc(C)c1Nc1ccnc(Nc2ccc(C#N)cc2)n1 when you can.
(A) 33
